A collection of sequences and their measured pre-steady-state target cleavage rate
Test system: MILI (PIWIL2) piRISC loaded with piRNA #1 (26 nt);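 also: 1 nM active piRISC with 0.1 nM target library at 33 °C single turnover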
Test: pre-steady-state target cleavage rate (min^-1); guide: piRNA #1 5'p-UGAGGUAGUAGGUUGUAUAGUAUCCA; higher = faster piRNA-guided slicing of the target
Conditions: auxiliary factor: 500 nM mouse GTSF1

GGAGUGGAUACUAUACAACCUACUUACCUCA: 0.133
GGAGACGAUACUCAUACAACCUACUACCUCA: 0.198
GGAGACCAUACUAUACAACCUACUCCCUCA: 0.106
GGAGACGAUACUAUACAACGUACUACCUCA: 0.0266
GGAGUGGAUACUAUACAACCUACUGACCUCA: 0.0789

## Input Tell us which pre-steady-state target cleavage rate value is on record for GGAGACCUAUGAUUACUACCUACUAGCUCA
## Output 0.0036

## Input Tell us which pre-steady-state target cleavage rate value is on record for GGAGACGAUACUAUACUACCUACUAGCUCA
## Output 0.124

###

Tested on: EfPiwi piRISC loaded with piRNA #1 (26 nt)
Assay: pre-steady-state target cleavage rate (min^-1); auxiliary factor: 500 nM Ephydatia muelleri Gtsf1; guide: piRNA #1 5'p-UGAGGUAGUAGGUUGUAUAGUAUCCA; higher = faster piRNA-guided slicing of the target
Parameter threshold = 0.003. Response is yes (1) when pre-steady-state target cleavage rate meets or exceeds it, else no (0).

## Input Could you please find out whether GGAGACCAUACUAUACAGCCUACUACCUCA has pre-steady-state target cleavage rate that meets 0.003 or exceeds it?
## Output yes (1)

## Input Could you please find out whether GGAGAGGAUACUAUAGAACCUACUAGCUCA has pre-steady-state target cleavage rate that meets 0.003 or exceeds it?
## Output no (0)

## Input Could you please find out whether GGAGACCUAUGAUUACAACCUACUCACCUCA has pre-steady-state target cleavage rate that meets 0.003 or exceeds it?
## Output no (0)

## Input Could you please find out whether GGAGACCAUACUAUACAACCUACUACCUAA has pre-steady-state target cleavage rate that meets 0.003 or exceeds it?
## Output yes (1)

## Input Could you please find out whether GGAGACCUAUGGAUACAACCUACUACCUCA has pre-steady-state target cleavage rate that meets 0.003 or exceeds it?
## Output yes (1)

## Input Could you please find out whether GGAGACCAUACUAUACAACCUACUAGCCUCA has pre-steady-state target cleavage rate that meets 0.003 or exceeds it?
## Output yes (1)

###

Tested on: EfPiwi piRISC loaded with L1MC piRNA (26 nt)
Test: pre-steady-state target cleavage rate (min^-1); auxiliary factor: none (no Gtsf1); guide: L1MC piRNA 5'p-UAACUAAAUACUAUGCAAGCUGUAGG; higher = faster piRNA-guided slicing of the target
value.kind: pre-steady-state target cleavage rate

// known answers, use as guide
UCCUGGAUGUCCUUGCAUAGUAAUUACUUA: < 0.0001
UCCUCCUACAGGAAGCAUAGUAUUUACAAA: < 0.0001
UCCUGGAUGUCGAACGAAAGUUUUUAGUUA: < 0.0001
UCCUGGAUGUCGAAGCAUAGGAUUUAGUUA: < 0.0001
UCCUGGAUGUCGAAGCAUAGUAUUUAGGUA: < 0.0001
UCCUGGAUGUCGAACGUUUGUAAUUAGUUA: < 0.0001

## Input Quote pre-steady-state target cleavage rate with test system EfPiwi piRISC loaded with L1MC piRNA (26 nt) for UCCUGGAUGUCGUUGCAUAGAUAUUAGUUA
## Output < 0.0001

## Input Quote pre-steady-state target cleavage rate with test system EfPiwi piRISC loaded with L1MC piRNA (26 nt) for UCCUGCUACAGCUUGCAAUCUAUUUUCAAA
## Output < 0.0001

## Input Quote pre-steady-state target cleavage rate with test system EfPiwi piRISC loaded with L1MC piRNA (26 nt) for UCCUGGAUGUCGAACGUAUCUAUCUUAGUUA
## Output < 0.0001

## Input Quote pre-steady-state target cleavage rate with test system EfPiwi piRISC loaded with L1MC piRNA (26 nt) for UCCUGGAUGAGCUUGCAUCAGUAUUUAGUUA
## Output < 0.0001

## Input Quote pre-steady-state target cleavage rate with test system EfPiwi piRISC loaded with L1MC piRNA (26 nt) for UCCUGGUUACAGCUUGCAUAGUAUUUAGUUA
## Output 0.00968

## Input Quote pre-steady-state target cleavage rate with test system EfPiwi piRISC loaded with L1MC piRNA (26 nt) for UCCUGGAUGUCGAACGUAUGUAUUUAUUA
## Output < 0.0001

## Input Quote pre-steady-state target cleavage rate with test system EfPiwi piRISC loaded with L1MC piRNA (26 nt) for UCCUCCUACACGAUGCAUAGUAUUUACAAA
## Output < 0.0001

## Input Quote pre-steady-state target cleavage rate with test system EfPiwi piRISC loaded with L1MC piRNA (26 nt) for UCCUGGAACACCUUGCAUAGUAUUUUCAAA
## Output < 0.0001

## Input Quote pre-steady-state target cleavage rate with test system EfPiwi piRISC loaded with L1MC piRNA (26 nt) for UCCUGGAUCUGCUUGCAUAGUAUAUAGUUA
## Output 0.011

## Input Quote pre-steady-state target cleavage rate with test system EfPiwi piRISC loaded with L1MC piRNA (26 nt) for UCCUGCUAGAGCUUGCAUAGUAUUUAGAAA
## Output < 0.0001

## Input Quote pre-steady-state target cleavage rate with test system EfPiwi piRISC loaded with L1MC piRNA (26 nt) for UCCUGGAUGUCGAAGCUAUAGUAUUUAGUUA
## Output < 0.0001

## Input Quote pre-steady-state target cleavage rate with test system EfPiwi piRISC loaded with L1MC piRNA (26 nt) for UCCUGGAUGUGCUUGCAUAGUCUUUAGUUA
## Output 0.00821

## Input Quote pre-steady-state target cleavage rate with test system EfPiwi piRISC loaded with L1MC piRNA (26 nt) for UCCUGCUACAGCUUGCAUAGUAUUAUGAAA
## Output < 0.0001

## Input Quote pre-steady-state target cleavage rate with test system EfPiwi piRISC loaded with L1MC piRNA (26 nt) for UCCUGCUACAGCUUGGUAAGUAUUUAGAAA
## Output < 0.0001

## Input Quote pre-steady-state target cleavage rate with test system EfPiwi piRISC loaded with L1MC piRNA (26 nt) for UCCUGGAUGUCGAAGCAUAGUAUUUAGUUU [g2:g16:cont:t1U]
## Output < 0.0001

## Input Quote pre-steady-state target cleavage rate with test system EfPiwi piRISC loaded with L1MC piRNA (26 nt) for UCCUGGAACAGCUUGCAUAGUAUUAUGAAA
## Output < 0.0001

## Input Quote pre-steady-state target cleavage rate with test system EfPiwi piRISC loaded with L1MC piRNA (26 nt) for UCCUGCUACAGCUUGCAUAGUAUUUAGCUA
## Output < 0.0001

## Input Quote pre-steady-state target cleavage rate with test system EfPiwi piRISC loaded with L1MC piRNA (26 nt) for UCCUGGAUCAGCUUGCAUAGUAGUUUAGUUA
## Output 0.011

###

A collection of sequences and their measured pre-steady-state target cleavage rate
Test system: MILI (PIWIL2) piRISC loaded with L1MC piRNA (26 nt);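 also: 1 nM active piRISC with 0.1 nM target library at 33 °C single turnover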
Experiment: pre-steady-state target cleavage rate (min^-1); guide: L1MC piRNA 5'p-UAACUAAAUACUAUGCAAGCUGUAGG; higher = faster piRNA-guided slicing of the target
Conditions: auxiliary factor: none (no GTSF1)
Reply: number alone, nothing else.

UCCUCGUACAGCUUGCAUAGUAUUAAGUUA: 0.00547
UCCUCGUACAGCUUGCAUAGUUUUUAGUUA: 0.00493
UCCUGGAUGUCGUGUGCAUAGUAUUUAGUUA: 0.00602

## Input Tell us which pre-steady-state target cleavage rate value is on record for UCCUCCUACAGGUUGGAUAGUAUUUAGUUA
## Output 0.00699

## Input Tell us which pre-steady-state target cleavage rate value is on record for UCCUGCUUCAGCUUGGAUAGUAUUUAGUUA
## Output 0.0068

###

Tested on: MILI (PIWIL2) piRISC loaded with piRNA #1 (26 nt);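 also: 1 nM active piRISC with 0.1 nM target library at 33 °C single turnover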
Assay: pre-steady-state target cleavage rate (min^-1); guide: piRNA #1 5'p-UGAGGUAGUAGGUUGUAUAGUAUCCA; MIWI and MILI are mouse PIWI proteins and EfPiwi is from a freshwater sponge; tags in brackets are library labels; higher = faster piRNA-guided slicing of the target
Details: auxiliary factor: 500 nM mouse GTSF1
value.kind: pre-steady-state target cleavage rate
Reply: number alone, nothing else.

GGAGACGAUACUAUACAACCUAUACCUCA: 0.0145
GGAGACGAUACUAUACAACCUACUACCAUCA: 0.134
GGAGUCGAUACUAUACAACCUACUUCCUCA: 0.0291
GGAGAGGAUACUUUACAACCUAGUACCUCA: 0.0146
GGAGUGGAUACUAUACAACCUACGACCUCA: 0.0834

Please look at the following sequence next.
## Input Tell us which pre-steady-state target cleavage rate value is on record for GGAGACGAUACUAUACAACGUAGUACCUCA
## Output 0.00546

Recorded values, source the supplement of paper PMC10338343.
